# Assay explanation: Biodistribution: organ distribution of F-18 signal in mice
# Format: in vivo, male NMRI mice
# Reported conditions: blood, 5 min post i.v. injection

>  <Compound>
O=C(NCC(=O)N1CCN(c2ccc(OCc3ccccc3)cc2)CC1)c1cccnc1[18F] [Example 12c]

>  <Unit spec>
% ID/g

>  <Organ distribution of F-18 signal, blood>
1.90

$$$$
>  <Compound>
O=C(NCC(=O)N1CCN(c2ccc(OCc3ccccc3)cc2)CC1)c1ccnc([18F])c1 [Example 11c]

>  <Unit spec>
% ID/g

>  <Organ distribution of F-18 signal, blood>
1.78

$$$$
>  <Compound>
O=C(NCC(=O)N1CCN(c2ccc(OCc3ccccc3)cc2)CC1)c1ccc([18F])nc1 [Example 10e]

>  <Unit spec>
% ID/g

>  <Organ distribution of F-18 signal, blood>
1.98

$$$$
>  <Compound>
O=C(NCC(=O)N1CCN(c2ccc(OCc3ccccc3)cc2)CC1)c1cccc(OCC[18F])c1 [Example 3g]

>  <Unit spec>
% ID/g

>  <Organ distribution of F-18 signal, blood>
2.12

$$$$
>  <Compound>
O=C(NCC(=O)N1CCN(c2ccc(OCc3ccccc3)cn2)CC1)c1ccnc([18F])c1 [Example 14f]

>  <Unit spec>
% ID/g

>  <Organ distribution of F-18 signal, blood>
2.36

$$$$
